Data provenance is ChEMBL document CHEMBL1141369.

Tested on: RPMI-8226
Test: Cytotoxicity against human RPMI 8226 cells
Type: cell-based
Property measured: IC50 (nM)
Answer in nM, number only, no unit symbol.

## Task Please supply the value of reported IC50 for the item COC(=O)CCSC(=O)[C@]1([C@@H](O)[C@@H]2C=CCCC2)NC(=O)[C@@H]2CCO[C@@]21C
## Result 7500

## Task Please supply the value of reported IC50 for the item COC(=O)[C@@H](CSC(=O)[C@]1([C@@H](O)[C@@H]2C=CCCC2)NC(=O)[C@H](CCCl)[C@]1(C)O)NC(C)=O
## Result 9.7

## Task Please supply the value of reported IC50 for the item COC(=O)CCSC(=O)[C@]1([C@@H](O)[C@@H]2C=CCCC2)NC(=O)[C@H](CCCl)[C@]1(C)O
## Result 11

## Task Please supply the value of reported IC50 for the item CC[C@H]1C(=O)N[C@](C(=O)SCCC(=O)OC)([C@@H](O)[C@@H]2C=CCCC2)[C@@]1(C)O
## Result 8000

## Task Please supply the value of reported IC50 for the item C[C@@]12OC(=O)[C@]1(CC1C=CCCC1)NC(=O)[C@@H]2CCCl (stereo not given in full) [SALINOSPORAMIDE J]
## Result 250
